Ref: paper PMC6691786

reportedProperty: melting point

{"molecule": "COc1ccc(C=NNC(=O)C(C)NC(=O)c2cccc(C(=O)NC(C)C(=O)NN=Cc3ccc(OC)c(OC)c3)c2)cc1OC (centres unmarked)", "melting point": "277 to 279 °C"}
{"molecule": "CC(NC(=O)c1cccc(C(=O)NC(C)C(=O)NN=Cc2ccc(F)cc2)c1)C(=O)NN=Cc1ccc(F)cc1 (centres unmarked)", "melting point": "285 to 287 °C"}
{"molecule": "CC(NC(=O)c1cccc(C(=O)NC(C)C(=O)NN=C2C(=O)Nc3ccc(Cl)cc32)c1)C(=O)NN=C1C(=O)Nc2ccc(Cl)cc21 (centres unmarked)", "melting point": "271 to 273 °C"}
{"molecule": "CC(NC(=O)c1cccc(C(=O)NC(C)C(=O)NN)c1)C(=O)NN (centres unmarked)", "melting point": "232 to 234 °C"}

Okay, next one:
Sample CC(NC(=O)c1cccc(C(=O)NC(C)c2n[nH]c(=S)o2)c1)c1n[nH]c(=S)o1 (centres unmarked) ; melting point observed: 132 to 134 °C

###

Kindly supply the reported melting point values for the records listed here.

Example cases with answers are listed next.
{"molecule": "CC(NC(=O)c1cccc(C(=O)NC(C)C(=O)NN2C(=O)CSC2c2ccc(F)cc2)c1)C(=O)NN1C(=O)CSC1c1ccc(F)cc1 (stereo not drawn)", "melting point": "168 to 170 °C"}
{"molecule": "COc1ccc(C2SCC(=O)N2NC(=O)C(C)NC(=O)c2cccc(C(=O)NC(C)C(=O)NN3C(=O)CSC3c3ccc(OC)cc3)c2)cc1 (stereo not drawn)", "melting point": "242 to 244 °C"}

Sample COc1ccc(C=NNC(=O)C(C)NC(=O)c2cccc(C(=O)NC(C)C(=O)NN=Cc3ccc(OC)cc3)c2)cc1 (stereo not drawn) ; melting point observed: 273 to 275 °C
